System: SF-295 CNS
experiment-description: NCI-60 one-dose screen, 48 h (100 = growth as untreated, 0 = no growth, -100 = all killed)
condition-details: 10 µM unless noted
This is part of a sample that, as a whole, favours compounds with a hit. Of some 83,000 tested, about 20% had one in any assay.
Decision: growth >= -10% yields TRUE, all other cases yield FALSE.

> print(dat)
                                   molecule  assigned.class
1  CCCCN1C(=O)c2cccc3c(-c4ccc5c(c4)ncn5C4CCCCC4)ccc(c23)C1=O            TRUE
2  CCCCCCC1(/C=N/NC(N)=O)NC(=O)NC1=O (centres undefined)            TRUE
3  Cc1cc(Oc2ccccc2)ccc1Nc1ncnc2ccc(-c3cnc(Cl)c(NS(C)(=O)=O)c3)cc12            TRUE
4  Nc1ncnc2c1c(-c1cccc(OCc3ccccc3)c1)cn2C1CC(CN2CCC2)C1 (centres undefined)           FALSE
5  C=CCC(=O)N[C@H](/C=C/C(=O)O)Cc1ccc(-c2cc(Cl)cc(Cl)c2)cc1            TRUE
6  C=CC(=O)Nc1cccc(Oc2nc(Nc3ccc(N4CCN(C)CC4)cc3)nc3ccsc23)c1            TRUE
7  CNC(=O)c1cc(Oc2ccc3nc(NC(=O)Nc4ccc(Cl)c(C(F)(F)F)c4)sc3c2)ccn1           FALSE
8  N#CCNC(=O)c1ccc(-c2ccnc(Nc3ccc(N4CCOCC4)cc3)n2)cc1            TRUE
9  COc1cccc2cc(-c3nc(C4CCC(C(=O)O)CC4)n4ncnc(N)c34)[nH]c12 (centres undefined)           FALSE

###

Test system: SR leukemia
experiment-description: NCI-60 one-dose screen, 48 h
condition-details: 10 µM unless noted
Compounds without any hit were thinned out: in the full panel of roughly 83,000, 20% have a hit. Activity calls are given as the source filed them. Rule for the calls: active = growth percent below 10; inactive = the rest.
Classes used: True = active, False = inactive

molecule	assigned-class
N#Cc1c(-c2ccc(Cl)cc2)csc1NC(=O)Nc1cccc(C(F)(F)F)c1	False
COc1ccc2c(CCCC(c3ccccc3)c3ccccc3)c3[n+](cc2c1OC)CCc1cc2c(cc1-3)OCO2	True
O=C(/C=C/c1ccc2c(c1)OCO2)c1c(O)c2ccccc2oc1=O	False
[2H]C1([2H])[C@H](C)O[C@H](C)C([2H])([2H])N1c1ccc(NC(=O)c2cccc(-c3ccc(OC(F)(F)F)cc3)c2C)cn1	False
Clc1nc(Cl)c2ncn(C/C=C\Cn3cnc4c(Cl)nc(Cl)nc43)c2n1	True
O=C(Cn1ccc2ccccc21)Nc1ccc(-c2nc3ccccc3s2)cc1	False
O=C(Nc1nc2cccc(-c3ccc(CN4CCS(=O)(=O)CC4)cc3)n2n1)C1CC1	False
O=C(COc1cccc(/C=C2\Cc3ccc(Cl)cc3C2=O)c1)Nc1nccs1	False
CS(=O)(=O)N1CCN(Cc2cc3nc(-c4cccc5[nH]ncc45)nc(N4CCOCC4)c3s2)CC1	False
COc1ccc(-c2cnc(-c3ccc(Cl)cc3)[nH]2)cc1OC	False
CNc1ncc2cc(-c3cc(NC(=O)NCCC(C)(C)C)c(F)cc3C)c(C)nc2n1	False
Cc1c(N)ccc(-c2ccc(N)c(C)c2S(=O)(=O)O)c1S(=O)(=O)O	False
C=CCCCC(=O)CCC(=O)OCC1O[C@@H](O[C@@H]2C(O)[C@@H](OC(C)=O)C(C)O[C@H]2O[C@H](CC=C)CCCCC)C(O)[C@@H](OC(=O)/C(C)=C/C)[C@@H]1OC(=O)/C=C/c1ccccc1 (stereo partly drawn)	True
CC[C@@H]1C(=O)N(C)c2cnc(Nc3ccc(C(=O)NC4CCC(N5CCN(CC6CC6)CC5)CC4)cc3OC)nc2N1C(C)C (stereo partly drawn)	True
Cc1ccc(NC(=O)c2ccc(CN3CCN(C)CC3)cc2)cc1Nc1nc(-c2cccnc2)cs1	True
CCCCCCCC(=O)SCC/C=C/[C@@H]1CC(=O)NCc2cccc(n2)C2=N[C@@](C)(CS2)C(=O)N[C@@H](C(C)C)C(=O)N1	False
CC(C)=CCc1cc2c(cc1O)C1=C(C(=O)C3=C(C1=O)S(=O)(=O)CCN3)C(C=C(C)C)O2 (stereo not drawn)	True
COc1ccc(C2CC(=O)c3c(O)c(OC)c(OC)c(OC)c3O2)c(O)c1 (stereo not drawn)	False

###

Some molecules, each annotated with its measured growth.
Test system: OVCAR-4 ovarian
experiment-description: NCI-60 one-dose screen, 48 h (100 = growth as untreated, 0 = no growth, -100 = all killed)
condition-details: 10 µM unless noted
Method: Growth inhibition of the OVCAR-4 human tumor cell line is measured as a screen for anti-cancer activity. Cells are grown in 96 well plates and exposed to the test compound for 48 hours. Compounds are tested at a single concentration, which is 10^-5 M for most compounds. The reported endpoint is percent growth (GI% or GIPRCNT), where numbers from 0 - 100% represent growth inhibition, and numbers from -100% - 0 represent cell death. For example, a value of 40 represents 60% growth inhibition. […]
Compounds without any hit were thinned out: in the full panel of roughly 83,000, 20% have a hit. Active and inactive are the calls of the source. Rule for the calls: active = growth percent below 10; inactive = the rest.
value-kind: growth

> print(dat)
                                   molecule               assay.result
1  Cc1cc(Oc2ccccc2)ccc1Nc1ncnc2ccc(-c3cnc(Cl)c(NS(C)(=O)=O)c3)cc12           40.1% (inactive)
2  CCCCCCCC(=O)SCC/C=C/[C@@H]1CC(=O)NCc2cc(ccn2)C2=N[C@@](C)(CS2)C(=O)N[C@@H](C(C)C)C(=O)O1           10.9% (inactive)
3  CCN1CCN(Cc2ccc(-c3cc4c(N[C@H](C)c5ccccc5)ncnc4[nH]3)cc2)CC1           76.2% (inactive)
4  O=C1CSC(c2c(F)cccc2Cl)N1NC(=O)C(O)(c1ccccc1)c1ccccc1 (centres undefined)           97.4% (inactive)
5  CC(=O)NCC(=O)N1[C@@H]2CC[C@H]1c1ccc(Nc3ncc(C(F)(F)F)c(NC4CCC4)n3)cc12  64.4% [2.5 µM] (inactive)
6  CCc1nc2cc(/C=C/C(=O)NO)ccc2c(=O)n1CCc1ccc(OC)cc1           39.1% (inactive)
7                       CCCCCCCCCNCCCCCCCCC           29.2% (inactive)
8  Cc1cc(-c2cc(O)ccc2Cl)cc2nnc(Nc3ccc(OCCN4CCCC4)cc3)nc12            -81.9% (active)
9  COc1cc(N2CCC(N(C)C)CC2)ccc1Nc1ncc(Cl)c(Nc2ccccc2P(C)(C)=O)n1           18.2% (inactive)

###

Test system: SK-MEL-5 melanoma
experiment-description: NCI-60 one-dose screen, 48 h
condition-details: 10 µM unless noted
The panel holds about 83,000 compounds, 20% with a hit somewhere; the sample as a whole holds those more often. Activity calls are given as the source filed them. Rule for the calls: active = growth percent below 10; inactive = the rest.
Classes used: active, inactive

> print(dat)
                                    molecule  assigned.class
 1  COc1ccc2c(CCc3ccc(Cl)cc3)c3[n+](cc2c1OC)CCc1cc2c(cc1-3)OCO2        inactive
 2  CCc1nc2ccc(Cc3ccc(C(=O)NO)cc3)cc2c(=O)n1CCc1ccccc1          active
 3  COc1ccc(-c2nocc2-c2cc(OC)c(OC)c(OC)c2)cc1          active
 4  CNC(=O)c1ccc(Nc2ncc(C(F)(F)F)c(NCc3nccnc3N(C)S(C)(=O)=O)n2)cc1          active
 5  Cn1ccnc1C(=O)/C=C/c1ccc(CC(=O)Nc2ccc(C(F)(F)F)cc2)cc1        inactive
 6  CN1CCN(c2ccc(C(=O)Nc3n[nH]c4ccc(Cc5cc(F)cc(F)c5)cc34)c(NC3CCOCC3)c2)CC1          active
 7  COC(=O)Nc1nc2ccc(C(=O)c3ccc(N(C)C4COC4)cc3)cc2[nH]1          active
 8  Nc1ccc(S(=O)(=O)O)c2cc(S(=O)(=O)O)cc(O)c12        inactive
 9  CC(=O)OC1Oc2ccccc2-c2oc(=O)c(-c3cc4ccc(N(C)C)cc4oc3=O)cc21 (stereo not given)        inactive
10   Nc1c(C(=O)c2ccccc2)sc2nc(-c3cccs3)ccc12        inactive

###

Some molecules, each annotated with its measured growth.
Test system: TK-10 renal
experiment-description: NCI-60 one-dose screen, 48 h (100 = growth as untreated, 0 = no growth, -100 = all killed)
condition-details: 10 µM unless noted
This is part of a sample that, as a whole, favours compounds with a hit. Of some 83,000 tested, about 20% had one in any assay.
value-kind: growth (%)

> print(dat)
                                   molecule  unit.info  assay.result
1  CCN(CC)CCCC(C)Nc1cc(-c2ccc(C(F)(F)F)cc2)c(C#N)c2nc3ccccc3n12 (stereo not given)          %          68.2
2  CCOc1cccc(/C=N/NC(=O)c2ccccc2Nc2ccnc(C(F)(F)F)c2)c1O          %          23.5
3  Cc1cccc(Cl)c1NC(=O)c1cnc(Nc2cc(N3CCOCC3)cc(N3CCOCC3)c2)s1          %         -65.2
4  CC1(O)CC(c2nc(-c3ccc4ccc(-c5ccccc5)nc4c3)c3c(N)nccn23)C1 (stereo not given)          %          42.6
5  N#Cc1c(-c2ccc(C(F)(F)F)cc2)cc(NCC2CCS(=O)(=O)CC2)n2c1nc1ccccc12          %          93.1
